- Measurement Target: HIS-TGFβR1 T204D (Homo sapiens, UniProt P36897, T204D)
- Sequence (P36897 34-503 T204D): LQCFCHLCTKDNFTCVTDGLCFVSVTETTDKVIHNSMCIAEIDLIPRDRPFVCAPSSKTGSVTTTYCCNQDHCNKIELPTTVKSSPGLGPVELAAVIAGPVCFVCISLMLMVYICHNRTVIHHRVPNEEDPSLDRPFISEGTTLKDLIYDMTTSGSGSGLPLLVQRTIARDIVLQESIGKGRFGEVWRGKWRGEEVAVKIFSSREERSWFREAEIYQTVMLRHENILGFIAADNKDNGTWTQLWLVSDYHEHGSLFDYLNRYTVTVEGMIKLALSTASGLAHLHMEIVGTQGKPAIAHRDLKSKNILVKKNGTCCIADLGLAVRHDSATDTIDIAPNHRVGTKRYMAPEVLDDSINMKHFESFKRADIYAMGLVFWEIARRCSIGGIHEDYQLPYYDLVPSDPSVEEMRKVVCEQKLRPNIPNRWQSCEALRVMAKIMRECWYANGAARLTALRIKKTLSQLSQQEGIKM
- Experimental Details: HTRF probe-displacement assay with HIS-TGFβR1 T204D
- Type: binding
- Stated Conditions: 1 nM HIS-TGFβR1 T204D, labeled probe at Kd, 1 hour at room temperature
I'd be grateful if you could share measured IC50 for these entries.
Answers are plain numbers, in µM.

Compound | Units Of Measure | IC50
NC(=O)c1cnc2ccc(-c3cn(CC(F)F)nc3-c3cccc(C(F)(F)F)n3)cn12 [Example 8] | µM | 0.006

Below are some compounds; for each one, tell me its IC50.
1. NC(=O)c1cnc2ccc(-c3c[nH]nc3-c3cccc(C(F)(F)F)n3)cn12 [Example 2]
2. N#Cc1cnc2ccc(-c3c(-c4ccc(F)cc4)n[nH]c3C(=O)NC3CC3)cn12 [Example 131]
3. Cc1cccc(-c2n[nH]c(CO)c2-c2ccc3nccn3c2)n1 [Example 141]
4. CC(C)c1[nH]nc(-c2ccc(F)cc2)c1-c1ccc2[nH]ncc2c1 [Example 70]
5. CC(C)c1nn(C)c(-c2ccc(F)cc2)c1-c1ccc2ncc(C(N)=O)n2c1 [Example 71]
6. Fc1ccc(-c2n[nH]c(C(F)(F)F)c2-c2ccc3nccn3c2)cc1 [Example 107]
7. CC(C)c1nn(C)c(-c2ccc(F)cc2)c1-c1ccc2ncc(C(C)(C)O)n2c1 [Example 73]
8. Cn1cc(-c2ccc3ncc(C#N)n3c2)c(-c2cccc(C(F)(F)F)n2)n1 [Example 9]

Result:
1. 0.001
2. 1.41
3. 0.001
4. 0.001
5. 0.145
6. 0.147
7. 9.86
8. 0.024

Please give IC50 for each item listed below.
1. Cc1cccc(-c2nn(C)c(C(C)C)c2-c2ccc3ncc(C#N)n3c2)n1 [Example 116]
2. Cc1cccc(-c2c(-c3ccc4ncc(C#N)n4c3)cnn2C2CC2)n1 [Example 22]
3. Cc1cccc(-c2n[nH]c(C(C)C)c2-c2ccc3ncc(C(N)=O)n3c2)n1 [Example 115]

Result:
1: 0.001; 2: 0.035; 3: 0.001

Lab note: each compound below needs its IC50 filled in.
1. O=C(NC1CC1)c1cnc2ccc(-c3c(-c4ccc(F)cc4)n[nH]c3C3CC3)cn12 [Example 92]
2. CCOC(=O)c1[nH]nc(-c2ccc(F)cc2)c1-c1ccc2nccn2c1 [Example 132]
3. CC(C)c1c(-c2ccc3ncc(C(C)(C)O)n3c2)c(-c2ccc(F)cc2)nn1C [Example 74]
4. N#Cc1cnc2ccc(-c3c[nH]nc3-c3ccc(F)cc3)nn12 [Example 13]
5. CC(C)c1c(-c2ccc3ncc(C(N)=O)n3c2)c(-c2ccc(F)cc2)nn1C [Example 72]
6. O=C(Nc1cnc2ccc(-c3c[nH]nc3-c3ccc(F)cc3)cn12)C(F)(F)F [Example 16]

Result:
1. 0.001
2. 0.758
3. 0.374
4. 0.007
5. 0.002
6. 0.187
